Tested on: M14
Assay: NCI tumour cell line growth inhibition, 48 h
Activity calls are given as the source filed them. Rule as the data show it: active = GI50 up to about 1.1 µM and inactive = higher. Where a SMILES comes first, the peptide text is derived from it. [ ]: non-standard residue; d: D form. The star is where a group is joined. Bn2Val = CC(C)[C@@H](C(=O)*)N(Cc1ccccc1)Cc1ccccc1; NH(3,4-diMeO-benzyl) = COc1ccc(CN*)cc1OC; NMeV = CN[C@H](C(=O)O)C(C)C
measureName: GI50

molecule	measuredResult
Cc1cccc(N2C(=O)C3c4[nH]c5ccc(C)cc5c4C4CCC(C(C)(C)C)CC4C3C2=O)c1 (stereo not drawn)	20.2 µM (inactive)
Cc1ccc(Cc2cc(N3CCN(c4cccc(Cl)c4)CC3)nnc2C)cc1	> 100 µM (inactive)
CCOC(=O)c1c(-c2ccc(Cl)cc2)c(C#N)c(=S)n(C2OC(COC(C)=O)C(OC(C)=O)C(OC(C)=O)C2OC(C)=O)c1-c1ccccc1 (stereo not drawn)	57.5 µM (inactive)

Value sought for every listed molecule: GI50.
1. COc1ccc(CNC(=O)[C@@H]2CCCN2C(=O)[C@@H]2CCCN2C(=O)[C@H](C(C)C)N(C)C(=O)[C@@H](NC(=O)[C@H](C(C)C)N(Cc2ccccc2)Cc2ccccc2)C(C)C)cc1OC (Bn2Val-V[NMeV]PP-{NH(3,4-diMeO-benzyl)})
2. COC1CC(N)(c2ccccc2)C(O)C(C)O1 (stereo not drawn)
3. CC(C)n1c2c(c3ccccc3c1=O)C(=O)c1ccccc1-2
4. COc1cc(C(C)O)c(S(=O)(=O)CC(C)O)nn1 (stereo not drawn)

Key:
14.6 µM (inactive)
> 100 µM (inactive)
> 100 µM (inactive)
> 100 µM (inactive)

Exercise: Query: GI50; subject: CN(C)c1nc(NC23CC4CC(CC(C4)C2)C3)nc(N(C)C)n1
Key: 13.1 µM (inactive)

* * *

Test system: SNB-75
Assay: NCI tumour cell line growth inhibition, 48 h
The source made the active and inactive calls. No stated cut-off is given here; in the data, active = GI50 up to about 1.1 µM and inactive = higher.
measureName: GI50

molecule	GI50
Cc1ccc([N+](=O)[O-])cc1NC(=O)c1cccc([N+](=O)[O-])c1O	13.4 µM (inactive)
CCOC(=O)NC(Nc1ccc(F)cc1F)(C(F)(F)F)C(F)(F)F	> 100 µM (inactive)
CC1=COC(C)(C=C(C#N)C#N)CC1 (stereo not given)	65.8 µM (inactive)

Value sought for every listed molecule: GI50.
1. Cn1c(=O)c(NC(=O)C(Cl)(Cl)Cl)nc2ccccc21
2. CCC1(Cl)C(=O)NC(=O)N(C2CC(O)C(CO)O2)C1N=[N+]=[N-] (stereo not given)
3. Nc1ccccc1/C=C\c1ccccc1
4. CN1CCCN(C)C1c1cc([N+](=O)[O-])ccc1O
5. NS(=O)(=O)c1ccc(NC(=O)COC(=O)c2cccc3c(=O)c4ccccc4[nH]c23)cc1

Key:
62.5 µM (inactive)
> 100 µM (inactive)
> 100 µM (inactive)
31.1 µM (inactive)
14.4 µM (inactive)

Value sought for every listed molecule: GI50.
1. O=C(/C=C/c1ccccc1)Oc1cccc(Br)c1
2. CCCCCCCCCC[C@H](O)[C@H]1CC[C@@H]([C@@H](O)CC[C@H](O)[C@@H]2CCC(CCCCCCC[C@@H](O)CC3=C[C@H](C)OC3=O)O2)O1 (stereo not given in full)

Key:
1: 45.3 µM (inactive); 2: 2.47 µM (inactive)
